B1: tRNA (parent)
chain: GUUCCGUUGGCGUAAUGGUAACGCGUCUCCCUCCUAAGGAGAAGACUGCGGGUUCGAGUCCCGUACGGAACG

# Variants of: B1
# PROTOCOL SUMMARY: yeast fitness relative to wild type (ratio to wild type); higher = fitter; tRNA-Arg(CCU), competitive growth, 37 C, YPD
Fewer inactive variants are shown than the library holds.
Below: a set of entries, each annotated with reported yeast fitness.
ATTRIBUTE MEASURED: yeast fitness

>>> print(df.to_string())
                   variant_designation  attribute_measured  value_reported
 0                       U8C A45U A65U       yeast fitness           0.709
 1                      U16A G50C A65G       yeast fitness           ≤ 0.5
 2                           C22U A57G       yeast fitness           0.775
 3                   U2A U8C G23A C29G       yeast fitness           ≤ 0.5
 4                            U2G U16A       yeast fitness            1.15
 5                      C33G C55A G58A       yeast fitness           0.609
 6                 C33G C49A C55G G56C       yeast fitness           0.561
 7                 C24U U28C A37G C62U       yeast fitness           ≤ 0.5
 8                            G9C A42U       yeast fitness           0.624
 9                  U7A C24G C31U C55A       yeast fitness           ≤ 0.5
10                           G12A U54C       yeast fitness           0.797
11                 A15G C34U A40U U54C       yeast fitness           ≤ 0.5
12                  U7C U19G C61G C62U       yeast fitness           0.514
13                       U7C U16A G41C       yeast fitness           0.613
14                           C31G A42G       yeast fitness           0.721
15            C24U U26C U28C G52C C60G       yeast fitness           ≤ 0.5
16                  G6C C27U A57C A70U       yeast fitness           0.537
17                           G39A G52C       yeast fitness           0.612
18            A14U G25A C62A G63A A70G       yeast fitness           ≤ 0.5
19        U8A A14C C24U U26A U28G U54G       yeast fitness           ≤ 0.5
20                           C27G A43U       yeast fitness           0.604
21                           U26A G51A       yeast fitness           0.769
22                      C11U G44A C62U       yeast fitness           0.762
23                           G48A C62U       yeast fitness            1.01
24            U16G C22G A37G A43G G68A       yeast fitness           ≤ 0.5
25                           U13C A15G       yeast fitness           0.903
26                           C11U A36U       yeast fitness           0.606
27                 A14G C24G C31U C55A       yeast fitness           0.552
28                 G10A A20G U26C G39A       yeast fitness           ≤ 0.5
29            A14G C24G G44C G58C G68U       yeast fitness           ≤ 0.5
30  U13C C27U C31A U35C C55G C66U A70C       yeast fitness           ≤ 0.5
31                           A37G G44C       yeast fitness           0.809
32                 C46U U54C G58C G67A       yeast fitness           ≤ 0.5
33                  G9C C11A U47G U59A       yeast fitness           ≤ 0.5
34                      U13G C61U A70G       yeast fitness           0.618
35                  C4U A15U A45G C62G       yeast fitness           ≤ 0.5
36                      A20U C27U C61G       yeast fitness           0.647
37                      A21G U59A A69G       yeast fitness           ≤ 0.5
38                  U8C U32C G44A G56A       yeast fitness           ≤ 0.5
39                       U3C G44C C46A       yeast fitness           0.672
40                      A20C A40G C62G       yeast fitness           0.864
41                      U26A C33U U53C       yeast fitness            0.54
42                      A37C A45U G68C       yeast fitness           ≤ 0.5
43            G18A C30A U32A U35G G67A       yeast fitness           ≤ 0.5
44                       C5A A21U C55A       yeast fitness           0.572
45                       U3A A21U G51C       yeast fitness           ≤ 0.5
